Hello, the source for this data is patent US20040259835A1, in case you need it.

Assay summary: Photostabilization of brivudine by admixed substances (formulation not specified)
Type: physicochemical
Metric: photostabilization of brivudine (in words)

>>> result("COc1ccc(C(=O)c2ccccc2O)c(O)c1")
"effectively stabilize"
>>> result("CCCCC(CC)COC(=O)c1ccc(Nc2nc(Nc3ccc(C(=O)OCC(CC)CCCC)cc3)nc(Nc3ccc(C(=O)OCC(CC)CCCC)cc3)n2)cc1 (centres unmarked)")
"No effects"
>>> result("O=C(O)CCCCC1CCSS1 (centres unmarked)")
"did not show any effect"
>>> result("COc1cc(O)c(C(=O)c2cc(S(=O)(=O)[O-])c(OC)cc2O)cc1S(=O)(=O)[O-].[Na+].[Na+]")
"effectively stabilize"
>>> result("N[C@@H](CS)C(=O)O")
"did not show any effect"
>>> result("COc1ccc(C(=O)c2ccccc2)c(O)c1")
"effectively stabilize"
>>> result("O=C(c1ccccc1)c1ccc(O)cc1O [2,4-dihydroxy benzophenone]")
"effectively stabilize"
>>> result("CC1CC(OC(=O)c2ccccc2O)CC(C)(C)C1 (centres unmarked) [homosalate]")
"No effects"
>>> result("O=C(c1ccc(O)cc1O)c1ccc(O)cc1O [2,2′,4,4′-tetrahydroxybenzophenon, 2,2′,4,4′-tetrahydroxy-benzophenone]")
"effectively stabilize"
>>> result("CCCCC(CC)COC(=O)c1ccc(N(C)C)cc1 (centres unmarked) [Padimate O]")
"No effects"
>>> result("COc1cc(O)c(C(=O)c2ccccc2)cc1S(=O)(=O)O")
"effectively stabilize"
